assay: The drug is tested on the gut metagenome community of A-07 with ENA study accession number: PRJEB31790 for biotransformation under microaerobic condition. The drug concentrations were measured over 7 timepoints collected between 0 and 12 hours of incubation by liquid-chromatography-coupled mass spectrometry (LC–MS); assay type: ADME; design: dose 5 uM, timepoint 0, 0.75, 1.5, 3, 6, 9, 12 hours; details: 5 µM

- molecule: "C[C@]12CCC(=O)C=C1CC[C@@H]1[C@@H]2[C@@H](O)C[C@@]2(C)[C@H]1CC[C@]2(O)C(=O)CO [HYDROCORTISONE]"
  Bacterial Biotransformation: "Compound metabolized"
- molecule: "C[C@]12CCC(=O)C=C1CC[C@@H]1[C@@H]2C(=O)C[C@@]2(C)[C@H]1CC[C@]2(O)C(=O)CO"
  Bacterial Biotransformation: "Compound metabolized"

====

experiment: The drug is tested on the gut metagenome community of A-06 with ENA study accession number: PRJEB31790 for biotransformation under anaerobic condition. The drug concentrations were measured over 7 timepoints collected between 0 and 12 hours of incubation by liquid-chromatography-coupled mass spectrometry (LC–MS); format: ADME; design: dose 5 uM, timepoint 0, 0.75, 1.5, 3, 6, 9, 12 hours; details: 5 µM
endpoint-label: Bacterial Biotransformation

- compound: "CCOC(=O)C1=C(COCCN)NC(C)=C(C(=O)OC)C1c1ccccc1Cl (centres undefined) [AMLODIPINE]"
  endpoint-label: "Bacterial Biotransformation"
  result: "Compound NOT metabolized"
- compound: "COc1c(C)c2c(c(O)c1C/C=C(\\C)CCC(=O)O)C(=O)OC2 [MYCOPHENOLIC ACID]"
  endpoint-label: "Bacterial Biotransformation"
  result: "Compound NOT metabolized"
- compound: "CN(Cc1cnc2nc(N)nc(N)c2n1)c1ccc(C(=O)N[C@@H](CCC(=O)O)C(=O)O)cc1 [METHOTREXATE]"
  endpoint-label: "Bacterial Biotransformation"
  result: "Compound metabolized"
- compound: "C[C@]12C=CC(=O)C=C1CC[C@@H]1[C@@H]2C(=O)C[C@@]2(C)[C@H]1CC[C@]2(O)C(=O)CO [PREDNISONE]"
  endpoint-label: "Bacterial Biotransformation"
  result: "Compound metabolized"
- compound: "C[C@@H]1C[C@H]2[C@@H]3CCC4=CC(=O)C=C[C@]4(C)[C@@]3(F)[C@@H](O)C[C@]2(C)[C@@]1(O)C(=O)CO [DEXAMETHASONE]"
  endpoint-label: "Bacterial Biotransformation"
  result: "Compound metabolized"
- compound: "CO[C@H]1C[C@@H]2CC[C@@H](C)[C@@](O)(O2)C(=O)C(=O)N2CCCC[C@H]2C(=O)O[C@H]([C@H](C)C[C@@H]2CC[C@@H](O)[C@H](OC)C2)CC(=O)[C@H](C)/C=C(\\C)[C@@H](O)[C@@H](OC)C(=O)[C@H](C)C[C@H](C)/C=C/C=C/C=C/1C [SIROLIMUS]"
  endpoint-label: "Bacterial Biotransformation"
  result: "Compound metabolized"
- compound: "C[C@]12C=CC(=O)C=C1CC[C@@H]1[C@@H]2[C@@H](O)C[C@@]2(C)[C@H]1CC[C@]2(O)C(=O)CO [PREDNISOLONE]"
  endpoint-label: "Bacterial Biotransformation"
  result: "Compound metabolized"
- compound: "CC(C)NCC(O)COc1ccc(CC(N)=O)cc1 (centres undefined) [ATENOLOL]"
  endpoint-label: "Bacterial Biotransformation"
  result: "Compound NOT metabolized"
- compound: "CNC(=C[N+](=O)[O-])NCCSCc1ccc(CN(C)C)o1 [RANITIDINE]"
  endpoint-label: "Bacterial Biotransformation"
  result: "Compound metabolized"

====

test: The drug is tested on the gut metagenome community of A-08 with ENA study accession number: PRJEB31790 for biotransformation under microaerobic condition. The drug concentrations were measured over 7 timepoints collected between 0 and 12 hours of incubation by liquid-chromatography-coupled mass spectrometry (LC–MS); format: ADME; parameters: dose 5 uM, timepoint 0, 0.75, 1.5, 3, 6, 9, 12 hours; conditions: 5 µM

- compound: "NS(=O)(=O)c1cc(C(=O)O)c(NCc2ccco2)cc1Cl [FUROSEMIDE]"
  Bacterial Biotransformation: "Compound NOT metabolized"
- compound: "CCOc1nc2cccc(C(=O)O)c2n1Cc1ccc(-c2ccccc2-c2nnn[nH]2)cc1"
  Bacterial Biotransformation: "Compound NOT metabolized"
- compound: "COc1ccc([C@@H]2Sc3ccccc3N(CCN(C)C)C(=O)[C@@H]2OC(C)=O)cc1"
  Bacterial Biotransformation: "Compound metabolized"
- compound: "C[C@H]1C[C@@H]2[C@H]([C@@H](O)C[C@@]3(C)[C@H]2CC[C@]3(O)C(=O)CO)[C@@]2(C)C=CC(=O)C=C12"
  Bacterial Biotransformation: "Compound metabolized"
- compound: "COc1c(C)c2c(c(O)c1C/C=C(\\C)CCC(=O)O)C(=O)OC2"
  Bacterial Biotransformation: "Compound NOT metabolized"
- compound: "COc1c(C)c2c(c(O)c1C/C=C(\\C)CCC(=O)OCCN1CCOCC1)C(=O)OC2 [MYCOPHENOLATE MOFETIL]"
  Bacterial Biotransformation: "Compound metabolized"
- compound: "Cn1cnc([N+](=O)[O-])c1Sc1ncnc2nc[nH]c12"
  Bacterial Biotransformation: "Compound metabolized"
- compound: "CO[C@H]1C[C@@H]2CC[C@@H](C)[C@@](O)(O2)C(=O)C(=O)N2CCCC[C@H]2C(=O)O[C@H]([C@H](C)C[C@@H]2CC[C@@H](OCCO)[C@H](OC)C2)CC(=O)[C@H](C)/C=C(\\C)[C@@H](O)[C@@H](OC)C(=O)[C@H](C)C[C@H](C)/C=C/C=C/C=C/1C"
  Bacterial Biotransformation: "Compound metabolized"
- compound: "C[C@H]1C[C@H]2[C@@H]3CCC4=CC(=O)C=C[C@]4(C)[C@@]3(F)[C@@H](O)C[C@]2(C)[C@@]1(O)C(=O)CO"
  Bacterial Biotransformation: "Compound metabolized"

====

assay: The drug is tested on the gut metagenome community of A-05 with ENA study accession number: PRJEB31790 for biotransformation under anaerobic condition. The drug concentrations were measured over 7 timepoints collected between 0 and 12 hours of incubation by liquid-chromatography-coupled mass spectrometry (LC–MS); format: ADME; design: dose 5 uM, timepoint 0, 0.75, 1.5, 3, 6, 9, 12 hours; details: 5 µM

- compound: "C[C@H]1C[C@@H]2[C@H]([C@@H](O)C[C@@]3(C)[C@H]2CC[C@]3(O)C(=O)CO)[C@@]2(C)C=CC(=O)C=C12"
  Bacterial Biotransformation: "Compound metabolized"
- compound: "CO[C@H]1C[C@@H]2CC[C@@H](C)[C@@](O)(O2)C(=O)C(=O)N2CCCC[C@H]2C(=O)O[C@H]([C@H](C)C[C@@H]2CC[C@@H](O)[C@H](OC)C2)CC(=O)[C@H](C)/C=C(\\C)[C@@H](O)[C@@H](OC)C(=O)[C@H](C)C[C@H](C)/C=C/C=C/C=C/1C"
  Bacterial Biotransformation: "Compound metabolized"
- compound: "CC(C)NCC(O)COc1ccc(CC(N)=O)cc1 (stereo unspecified)"
  Bacterial Biotransformation: "Compound NOT metabolized"
- compound: "Cn1cnc([N+](=O)[O-])c1Sc1ncnc2nc[nH]c12"
  Bacterial Biotransformation: "Compound metabolized"
- compound: "COc1c(C)c2c(c(O)c1C/C=C(\\C)CCC(=O)O)C(=O)OC2"
  Bacterial Biotransformation: "Compound NOT metabolized"
- compound: "CN(Cc1cnc2nc(N)nc(N)c2n1)c1ccc(C(=O)N[C@@H](CCC(=O)O)C(=O)O)cc1 [METHOTREXATE]"
  Bacterial Biotransformation: "Compound NOT metabolized"

====

assay: The drug is tested on the gut metagenome community of A-07 with ENA study accession number: PRJEB31790 for biotransformation under microaerobic condition. The drug concentrations were measured over 7 timepoints collected between 0 and 12 hours of incubation by liquid-chromatography-coupled mass spectrometry (LC–MS); format: ADME; design: dose 5 uM, timepoint 0, 0.75, 1.5, 3, 6, 9, 12 hours; conditions: 5 µM
endpoint-label: Bacterial Biotransformation

- molecule: "COc1c(C)c2c(c(O)c1C/C=C(\\C)CCC(=O)OCCN1CCOCC1)C(=O)OC2 [MYCOPHENOLATE MOFETIL]"
  endpoint-label: "Bacterial Biotransformation"
  result: "Compound metabolized"
- molecule: "C[C@H]1C[C@@H]2[C@H]([C@@H](O)C[C@@]3(C)[C@H]2CC[C@]3(O)C(=O)CO)[C@@]2(C)C=CC(=O)C=C12 [METHYLPREDNISOLONE]"
  endpoint-label: "Bacterial Biotransformation"
  result: "Compound metabolized"
- molecule: "CCCC1O[C@@H]2C[C@H]3[C@@H]4CCC5=CC(=O)C=C[C@]5(C)[C@H]4[C@@H](O)C[C@]3(C)[C@]2(C(=O)CO)O1 (some centres undefined) [BUDESONIDE]"
  endpoint-label: "Bacterial Biotransformation"
  result: "Compound metabolized"
